- test.target: ABHD12 (Mus musculus, UniProt Q99LR1)
- Construct: from tissue; host or cells: mouse brain (membrane fraction)
- experiment: In vitro competitive activity-based protein profiling (FP-Rhodamine probe, gel-based) in mouse brain membrane proteomes
- Format: biochemical
- condition.set: 1 μM inhibitor; mouse brain membrane proteome, 30 min preincubation at 37° C.
value.kind: inhibition at 1 µM

Examples with answers:
compound.structure.string | recorded.result
O=C(Nc1cccnc1)NC1CCN(c2nccc(-c3ccc(OC(F)(F)F)cc3)c2Cl)CC1 | ≥ 75%
O=C(Nc1cccnc1)NC1CCN(c2nccc(-c3cccc(OC(F)(F)F)c3)c2Cl)CC1 | ≥ 75%
O=C(Nc1cccnc1)NC1CCN(c2nc(Oc3ccc(OC(F)(F)F)cc3Cl)ccc2Cl)CC1 | 25 to 50%
O=C(Nc1cccnc1)NC1CCN(c2cc(-c3ccc(OC(F)(F)F)cc3)ccn2)CC1 | 25 to 50%
O=C(Nc1cccnc1)NC1CCN(c2nccc(Oc3ccc(F)c(OC(F)(F)F)c3)c2Cl)CC1 | 25 to 50%

May I ask what inhibition at 1 µM has been recorded for O=C(Nc1cccnc1)NC1CCN(c2nccc(Oc3ccccc3OC(F)(F)F)c2Cl)CC1 ?
25 to 50%

###

- test.target: UniProtKB Q99LR1
- Sequence (Q99LR1 1-398): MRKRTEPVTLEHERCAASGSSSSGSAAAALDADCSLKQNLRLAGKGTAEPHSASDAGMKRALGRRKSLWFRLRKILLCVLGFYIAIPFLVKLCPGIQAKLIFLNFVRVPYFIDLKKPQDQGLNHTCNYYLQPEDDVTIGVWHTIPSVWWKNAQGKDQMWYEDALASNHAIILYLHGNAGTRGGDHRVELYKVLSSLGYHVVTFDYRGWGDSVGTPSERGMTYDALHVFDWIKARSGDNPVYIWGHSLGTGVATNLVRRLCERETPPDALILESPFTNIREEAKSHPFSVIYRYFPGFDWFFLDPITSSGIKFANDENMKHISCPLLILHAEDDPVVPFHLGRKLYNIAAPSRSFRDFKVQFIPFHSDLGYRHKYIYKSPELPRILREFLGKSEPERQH
value.kind: IC50

Use the examples below as a reference point.
compound.structure.string | recorded.result
O=C(Nc1cccnc1)NC1CCN(c2nccc(Oc3ccc(Cl)c(OC(F)(F)F)c3)c2Cl)CC1 | 100 to 1000 nM
Cc1c(Oc2ccc(OC(F)(F)F)cc2)ccnc1N1CCC(NC(=O)Nc2cccnc2)CC1 | 100 to 1000 nM

# IC50 lookup, item Cc1cc(OC(F)(F)F)ccc1Oc1ccnc(N2CCC(NC(=O)Nc3cccnc3)CC2)c1Cl
100 to 1000 nM

###

- test.target: ABHD12 (Mus musculus, UniProt Q99LR1)
- Construct: from tissue; host or cells: mouse brain (membrane fraction)
- experiment: In vitro competitive activity-based protein profiling (FP-Rhodamine probe, gel-based) in mouse brain membrane proteomes
- Assay type: biochemical
- condition.set: 1 μM inhibitor; mouse brain membrane proteome, 30 min preincubation at 37° C.
# inhibition at 1 µM values compiled below

The following compounds have reported results that may help.
compound | inhibition at 1 µM
Cc1c(Oc2ccc(OC(F)(F)F)cc2)ccnc1N1CCC(NC(=O)Nc2cccnc2)CC1 [Example 9] | ≥ 75%
O=C(Nc1cccnc1)NC1CCN(c2nccc(OCc3cccc(OC(F)(F)F)c3)c2Cl)CC1 [Example 29] | 25 to 50%
Cc1cc(OC(F)(F)F)ccc1Oc1ccnc(N2CCC(NC(=O)Nc3cccnc3)CC2)c1Cl [Example 16] | ≥ 75%
O=C(Nc1cccnc1)NC1CCN(c2nccc(Oc3ccc(OC(F)(F)F)c(F)c3)c2Cl)CC1 [Example 14] | ≥ 75%
C#Cc1ccc(N2CCC(NC(=O)Nc3cccnc3)CC2)nc1 [Example 25] | 0 to 25%

For the next question, use this compound.
Entry O=C(Nc1cccnc1)NC1CCN(c2nccc(OCc3ccc(OC(F)(F)F)cc3)c2Cl)CC1 [Example 28] : reported inhibition at 1 µM = ?
25 to 50%

###

Items are presented alongside their recorded inhibition at 1 µM.
- test.target: ABHD12 (Mus musculus, UniProt Q99LR1)
- Construct: from tissue; host or cells: mouse brain (membrane fraction)
- experiment: In vitro competitive activity-based protein profiling (FP-Rhodamine probe, gel-based) in mouse brain membrane proteomes
- Type: biochemical
- condition.set: 1 μM inhibitor; mouse brain membrane proteome, 30 min preincubation at 37° C.
- Procedure: Compounds were tested to assess their ABHD12 activity using the following assay. Mouse brain membrane proteomes (50 μL, 1.0 mg/mL total protein concentration) were preincubated with varying concentrations of inhibitors at 37° C. […] Following in-gel fluorescence imaging, enzyme activity was determined by measuring intensity of gel bands corresponding to ABHD12 using ImageJ software.

Examples with answers:
compound.structure.string | inhibition at 1 µM
O=C(Nc1cccnc1)NC1CCN(c2nccc(Oc3ccc(OC(F)(F)F)cc3)c2Cl)CC1 | ≥ 75%
O=C(Nc1cccnc1)NC1CCN(c2ncccc2Oc2ccc(OC(F)(F)F)cc2Cl)CC1 | ≥ 75%
C#Cc1ccc(Oc2ccnc(N3CCC(NC(=O)Nc4cccnc4)CC3)c2Cl)c(Cl)c1 | ≥ 75%
CC(=O)c1ccc(N2CCC(NC(=O)Nc3cccnc3)CC2)nc1 | 0 to 25%
O=C(Nc1cccnc1)NC1CCN(c2nccc(Oc3cccc(OC(F)(F)F)c3)c2Cl)CC1 | 50 to 75%

Request the reported inhibition at 1 µM associated with O=C(Nc1cccnc1)NC1CCN(c2nccc(Oc3ccc(Cl)c(OC(F)(F)F)c3)c2Cl)CC1
≥ 75%

State the recorded inhibition at 1 µM for this entry: O=C(Nc1cccnc1)NC1CCN(c2nccc(Oc3ccc(OC(F)(F)F)c(Cl)c3)c2Cl)CC1
≥ 75%

Return reported inhibition at 1 µM; argument: N#Cc1c(Oc2ccc(C(F)(F)F)cc2)ccnc1N1CCC(NC(=O)Nc2cccnc2)CC1
50 to 75%

What value of inhibition at 1 µM has been recorded for this entry: COc1ccnc(N2CCC(NC(=O)Nc3cccnc3)CC2)c1
0 to 25%

I am curious: what inhibition at 1 µM value has been reported for O=C(Nc1cccnc1)NC1CCN(c2nccc(OC3CCOCC3)c2Cl)CC1 ?
0 to 25%

What value of inhibition at 1 µM has been recorded for this entry: O=C(Nc1cccnc1)NC1CCN(c2cc(Oc3ccc(C(F)(F)F)cc3)ccn2)CC1
25 to 50%
